- PROTOCOL_DETAILS: soluble on expression in E. coli; label from the status in PepcDB or PDB records
READOUT_LABEL: soluble on expression in E. coli

| BIOSEQUENCE | DATA_VALUE |
| --- | --- |
| MARILAIDDEDGILYIIKSALEKEGHEVTAVSNPLTIPKEKFCHYDLILLDVMMPEIDGFTLCKEIRDFVDSPIVFLTAKTMEKDLITGLSLGGDDYITKPFGIGELRARVSAHVRREHREKQNAFFLSGLTFHLSCKEIWYDDTSIAFTKSEYGICEYLALNHGQVFSREKIYENVFGYEGESDNQVIVEHIKNIRHKLSKYGMNPIETVWGIGYKWRK | not soluble |
| MSLLTVGIVDDNPRDLEKLELIVNNMENVELILKANSADEVYHSIQKTPVDLLITDIEMPGMSGYQLADFIQLNNMKTAVIFVTAKSGYAVHAFELNVHDYILKPFNPDRLIQSIDRFTEKKDAGRVTGRLFIRSDGDLVVVPKAEIIFLERTGRTTTIHTINETYETYQSLGELEGDIRESMFIRSHRSFIINLQYVKRFASYSKKSFVVIFEGSSGKALVTKEKLKYLQENYEGHHHHHH | not soluble |

----------
- PROTOCOL_DETAILS: soluble on expression in E. coli; label from the status in PepcDB or PDB records
READOUT_LABEL: soluble on expression in E. coli

Sample answers from the record:
| BIOSEQUENCE | DATA_VALUE |
| --- | --- |
| IIGGREVIPHSRPYMASLQRNGSHLCGGVLVHPKWVLTAAHCLAQRMAQLRLVLGLHTLDSPGLTFHIKAAIQHPRYKPVPALENDLALLQLDGKVKPSRTIRPLALPSKRQVVAAGTRCSMAGWGLTHQGGRLSRVLRELDLQVLDTRMCNNSRFWNGSLSPSMVCLAADSKDQAPCKGDSGGPLVCGKGRVLAGVLSFSSRVCTDIFKPPVATAVAPYVSWIRKVTGRSALEHHHHHH | soluble |
| MKVSDILTVAIRLEEEGERFYRELSEHFNGEIKKTFLELADQERIHAEIFRKMSDQENWDEVDSYLAGYAFYEVFPDTSEILRRKDLTLKEVLDIAISVEKDSIILYYELKDGLVNSDAQKTVKKIIDQEKEHLRKLLEMKREST | not soluble |
| MQIKAGLIWMNGAFVPQEEAKTSVLSHALHYGTSVFEGIRAYETAKGPAIFRLKEHVKRFYNSAKVLRMEIPFAPEELEEAIKEVVRRNGYRSCYIRPLAWMGAKALGVNPLPNNPAEVMVAAWEWGAYLGEEAVRKGARLITSSWARFPANVMPGKAKVGGNYVNSALAKMEAVAAGADEALLLDEEGYVAEGSGENLFFVRDGVIYALEHSVNLEGITRDSVIRIAKDLGYEVQVVRATRDQLYMADEVFMTGTAAEVTPVSMIDWRPIGKGTAGPVALRLREVYLEAVTGRRPEYEGWLTYVNGQ | soluble |
| SNTGPYYFVKNLPLHELITPEFISTFIKKGKLILSLDKDTYEETGLQGHPSQFSGRKIMKFIVSIDLMELSLNLDSKKYERISWSFKEKKPLKFDFLLAWHKTGSEESTMMSYFSKYQIQEHQPKVALSTLRDLQCPVLQSSELEGTPEVSCRALELFDWLGAVFSNVDLNNEPNNFISTYCCPEPSTVVAKAYLCTITGFILPEKICLLLEHLCHYFDEPKLAPWVTLSVQGFADSPVSWEKK | soluble |
| SLNERVMMINANGVPIALYNRGHLGSGHFGAVIKASLDDGTLYAAKVPYSQIVPNADATSAELEAEISSARAELVKTIRQELDVRDKLVAKGLTLTETAEQYGLPLCQMTLTLPENKATVVRRGSRLVVVSKEVMLLPLIDGSPSNSLVQSQPPFLFQRAVAREAIIALAKLHELGFAHGDVKLNNMMIDVHGFGHMLDMGSVRPVDSCVSEEDKYYLRLWAPELAKSQHTSQQTCLKRGALDVWALGLAIFEFVCFNRLPYSLSNLPSSLWSRVEHLSRLRLSDFSAKDCNESDPAVMGIVAQFLNPNPEERPELPKFVSSYTFFRQAPGVTSHLTRIPTTELSSHR | not soluble |

Field: soluble on expression in E. coli. Fill in for each record below.
1. GSSSLIRRVISTAKAPGAIGPYSQAVLVDRTIYISGQIGMDPSSGQLVSGGVAEEAKQALKNMGEILKAAGCDFTNVVKTTVLLADINDFNTVNEIYKQYFKSNFPARAAYQVAALPKGSRIEIEAVAIQGPLTTASL
2. PITNGHLDLIERAAQMFDEVIIAVAASPSKNTLFTLEERVEFARQVTSHLDNVSAKGFSGLLVDFAKAEKANVLIRGLRTTVDFEYEFGLTNMYRRLMPGLESVFLTPAEEHAFISSTLVREVAIHGGNVDEFVPAIVANALHQKKKI

// result
1: soluble; 2: not soluble

Field: soluble on expression in E. coli. Fill in for each record below.
1. MSKFTIGPLPCKNPESFTKLSAKKDTVRKTEPVEVVCRNVEGENNGECYKIKAPKTPFIINHLEKNYIPKPKETTKKRRAGEAGGVKREHSTSESDDQLEDANQPSTSSQQSSSRKKQRNQQDI
2. MGSDKIHHHHHHMTERNSQDIGIQARFAEAEALGAHVYVLAAPLHNGSLPGALSVRRDHVACMLDGGADVQAVSPHLIYIPPSHFESARGWLERHGPASPCATILASPLPLAALAEHLKSFLRVCLPDGEPIVLAYWDPAILATLVGSAEDETLFVKGPVLSGEQRQAFLAPILRWTYWDRKGALRQIDWRQDRMPASAATLKPPLKLDQGQVDALTEASVPDGLLQHFSEHAPELLADVPERDRYGFVCRQIARARQHGIEGPGAWMDYCALAMRHGEAFDSHPDGVALLRTILPTASDRFSAS
3. MSLPIRVPDELPAVNFLREENVFVMTTSRASGQEIRPLKVLILNLMPKKIETENQFLRLLSNSPLQVDIQLLRIDSRESRNTPAEHLNNFYCNFEDIQEQNFDGLIVTGAPLGLVEFNDVAYWPQIKQVLEWSKDHVTSTLFVCWAVQAALNILYGIPKQTRTDKLSGVYEHHILHPHALLTRGFDDSFLAPHSRYADFPAALIRDYTDLEILAETEEGDAYLFASKDKRIAFVTGHPEYDAQTLAQEYFRDVEAGLDPEVPYNYFPHNDPQNKPRASWRSHGNLLFTNWLNYYVYQITPYDLRHMNPTLDEGHHHHHH
4. MEYRSLTLDDFLSRFQLLRPQINRETLNHRQAAVLIPIVRRPQPGLLLTQRSIHLRKHAGQVAFPGGAVDDTDASAIAAALREAEEEVAIPPSAVEVIGVLPPVDSVTGYQVTPVVGIIPPDLPYRASEDEVSAVFEMPLAQALHLGRYHPLDIYRRGDSHRVWLSWYEQYFVWGMTAGIIRELALQIGVKPMGHHHHHHSH
5. MRPTRKCEFCGKTFVPRSGMQKYCSEECQAETKRLRKKRQQDLINGIEPIMDLQHQEYLTFSKAAILMGCTRQYIYKLVANGKLKASRLSSRMAFVRKADIEKMFEGHPYKRVVPASKSKLSKKAKAEKPTQNQEPTKGKEENDVLDYYSGEEVMSIYKVKKSWLYTSAKRNQIPMCRIAGKNYYSKRHIDEFFGTAVDLNSITEWVTADDVEEAFSMSKSALRAYTYRHKIPTKREYGRTYYSKEHLEELRRTDLMSDDSYYTTEQVQQIYGLTSANICHIVRVHHISKVKVGVKNLLLKTDVERAMAERAAKGL
6. GTPEQLQAWRWEREIDERNRPLSDEELDAMFPEGYKVLPPPAGYVPI

// result
not soluble
not soluble
soluble
not soluble
not soluble
soluble
